What MIC was measured for each of the following?
- Test system: K penumoniae H 521
- test details: Antibacterial activity (MIC) against MDR Gram negative strains
- Type: cell-based
- run conditions: Table 4; K penumoniae H 521, KPC ESBL, MDR; read-out: MIC
The answer is to be given in µg/mL; state only the numeric part.

MIC recorded for this compound, O=C(NNC(=O)[C@@H]1CC[C@@H]2CN1C(=O)N2OC(F)(F)C(=O)O)[C@@H]1CCCNC1 [Example 5] , is 1

MIC recorded for this compound, NCCCC(=O)NNC(=O)[C@H]1CC[C@@H]2CN1C(=O)N2OS(=O)(=O)O (relative stereo) [Example 9] , is 1

MIC recorded for this compound, NCCC(=O)NNC(=O)[C@H]1CC[C@@H]2CN1C(=O)N2OS(=O)(=O)O (relative stereo) [Example 8] , is 1

Where do the numbers come from? From patent US9381200B2.
